These entries and their values trace back to ChEMBL document CHEMBL4304837.

experiment: Half life in mouse liver microsomes at 0.5 uM measured up to 45 mins by LC-MS/MS analysis; assay type: ADME, Microsome
half-life at 0.5 µM values by entry
Outcome measure: half-life at 0.5 µM (min)

> print(dat)
                            chemical.smiles      outcome.measure  value.modifier  numeric.readout
1  CCc1cc(NC(=O)c2nn(C3CCN(C(=O)NC(C)(C)C)CC3)c3ccccc23)ccc1-c1n[nH]c(=O)c(C)c1C  half-life at 0.5 µM               =               12
2  COc1ccc2c(C(=O)Nc3ccc(NC(=O)c4nn(C5CCN(C(=O)CC(C)(C)C#N)CC5)c5ccc(F)cc45)cc3Cl)cnn2c1  half-life at 0.5 µM               >              120
3  CCc1cc(NC(=O)c2nn(C3CCN(C(=O)NC(C)(C)C)CC3)c3ccccc23)ccc1-c1n[nH]c(=O)cc1C  half-life at 0.5 µM               =               31
4  COc1ccc2c(C(=O)Nc3ccc(NC(=O)c4nn(C5CCN(C(=O)NC(C)(C)C)CC5)c5ccc(F)cc45)cc3Cl)cnn2c1  half-life at 0.5 µM               =               88

###

Biological target: Tyrosine-protein kinase ZAP-70 (Homo sapiens) (UniProt P43403)
Sequence (whole entry): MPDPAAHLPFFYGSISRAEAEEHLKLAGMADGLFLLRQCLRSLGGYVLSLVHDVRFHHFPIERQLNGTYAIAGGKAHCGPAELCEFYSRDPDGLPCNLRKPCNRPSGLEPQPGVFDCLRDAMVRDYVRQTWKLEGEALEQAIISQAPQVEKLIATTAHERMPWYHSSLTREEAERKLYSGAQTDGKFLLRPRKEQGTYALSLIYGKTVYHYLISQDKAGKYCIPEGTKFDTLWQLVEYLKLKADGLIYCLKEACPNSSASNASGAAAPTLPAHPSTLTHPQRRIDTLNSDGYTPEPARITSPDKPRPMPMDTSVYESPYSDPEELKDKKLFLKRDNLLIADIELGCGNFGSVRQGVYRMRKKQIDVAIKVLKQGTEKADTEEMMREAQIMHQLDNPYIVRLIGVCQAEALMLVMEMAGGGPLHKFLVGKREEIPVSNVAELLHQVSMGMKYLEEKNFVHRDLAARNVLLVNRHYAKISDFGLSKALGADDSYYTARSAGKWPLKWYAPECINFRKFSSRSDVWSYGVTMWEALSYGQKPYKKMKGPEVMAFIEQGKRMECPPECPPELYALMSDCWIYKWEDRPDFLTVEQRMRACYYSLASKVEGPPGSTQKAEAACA
Test: Effect on ZAP70 phosphorylation in human Jurkat cells pre-incubated for 30 mins followed by anti-CD3/CD28 stimulation measured after 10 mins relative to control
Format: cell-based
Outcome measure: Emax (%)

> print(dat)
                            chemical.smiles  unit.of.measure  numeric.readout
1  COc1ccc2c(C(=O)Nc3ccc(NC(=O)c4nn(C5CCN(C(=O)NC(C)(C)C)CC5)c5ccc(F)cc45)cc3Cl)cnn2c1                %              210
2  COc1ccc2c(C(=O)Nc3ccc(NC(=O)c4nn(C5CCN(C(=O)CC(C)(C)C#N)CC5)c5ccc(F)cc45)cc3Cl)cnn2c1                %              360
3  CCc1cc(NC(=O)c2nn(C3CCN(C(=O)NC(C)(C)C)CC3)c3ccccc23)ccc1-c1n[nH]c(=O)cc1C                %              350
4  COc1ccc2c(C(=O)Nc3ccc(NC(=O)c4nn(C5CCN(C(=O)NC(C)(C)C)CC5)c5ccccc45)cc3C)cnn2c1                %              220
5  Cc1cc(NC(=O)c2nn(C3CCN(C(=O)NC(C)(C)C)CC3)c3ccccc23)ccc1NC(=O)c1cnn2ccccc12                %              190
